Provenance of the data: ChEMBL document CHEMBL1146270

test target: Disintegrin and metalloproteinase domain-containing protein 17 (Homo sapiens)
property: pIC50
Worth noting: pIC50 values are minus log10 of concentrations stated in mol/L.

Task: Reported pIC50, compound "CC#CCOc1ccc(S(=O)(=O)CC2(C(=O)NO)CCN(C(=O)c3c(Cl)cncc3Cl)CC2)cc1" : ____
Output: 5.89

###

test target: Disintegrin and metalloproteinase domain-containing protein 17 (Homo sapiens)
method notes: Inhibition of TACE
property: pIC50
Worth noting: pIC50 values are minus log10 of concentrations stated in mol/L.

compound=CC#CCOc1ccc(S(=O)(=O)CC2(C(=O)NO)CCN(S(=O)(=O)N(C)C)CC2)cc1 property=pIC50 quantitative_result=8.74
compound=CC#CCOc1ccc(S(=O)(=O)CC2(C(=O)NO)CCN(S(=O)(=O)N3CCC[C@@H]3CO)CC2)cc1 property=pIC50 quantitative_result=8.85
compound=CC#CCOc1ccc(S(=O)(=O)CC2(C(=O)NO)CCN(S(=O)(=O)C3CC3)CC2)cc1 property=pIC50 quantitative_result=8.80
compound=CC#CCOc1ccc(S(=O)(=O)CC2(C(=O)NO)CCN(S(=O)(=O)N3CCCCC3)CC2)cc1 property=pIC50 quantitative_result=8.92
compound=CC#CCOc1ccc(S(=O)(=O)CC2(C(=O)NO)CCN(c3nc4ccccc4o3)CC2)cc1 property=pIC50 quantitative_result=8.96

Task: Reported pIC50, compound CC#CCOc1ccc(S(=O)(=O)N2CCSC(C)(C)C2C(=O)NO)cc1 (centres undefined) : ____
Output: 8.05

Task: Reported pIC50, compound "CC#CCOc1ccc(S(=O)(=O)CC2(C(=O)NO)CCN(S(=O)(=O)C(CC)CC)CC2)cc1" : ____
Output: 8.92

###

Measurement record for 72 kDa type IV collagenase (Homo sapiens, UniProt P08253); quantity recorded: log10(IC50).
Could you please treat all values as log10 of IC50 in nM?

Worked examples, 2 compounds total:
compound=CC#CCOc1ccc(S(=O)(=O)CC2(C(=O)NO)CCN(S(=O)(=O)CCN3CCOCC3)CC2)cc1 property=log10(IC50) quantitative_result=1.57
compound=CC#CCOc1ccc(S(=O)(=O)CC2(C(=O)NO)CCN(c3ccccn3)CC2)cc1 property=log10(IC50) quantitative_result=1.80

Task: Please tell me: log10(IC50) of "CC#CCOc1ccc(S(=O)(=O)CC2(C(=O)NO)CCN(S(=O)(=O)N3CCN(C(C)=O)CC3)CC2)cc1" , system 72 kDa type IV collagenase (Homo sapiens, UniProt P08253)?
Output: 1.30

Task: Please tell me: log10(IC50) of Cc1cc(COc2ccc(S(=O)(=O)CC(CC3CCN(C(C)(C)C)CC3)N(O)C=O)cc2)c2ccccc2n1 (stereo not drawn) , system 72 kDa type IV collagenase (Homo sapiens, UniProt P08253)?
Output: 3.70

Task: Please tell me: log10(IC50) of "CC#CCOc1ccc(S(=O)(=O)CC2(C(=O)NO)CCN(S(=O)(=O)C3CCCC3)CC2)cc1" , system 72 kDa type IV collagenase (Homo sapiens, UniProt P08253)?
Output: 1.73

Task: Please tell me: log10(IC50) of "CC#CCOc1ccc(S(=O)(=O)CC2(C(=O)NO)CCN(S(=O)(=O)C(C)(C)C)CC2)cc1" , system 72 kDa type IV collagenase (Homo sapiens, UniProt P08253)?
Output: 1.86

Task: Please tell me: log10(IC50) of "CC#CCOc1ccc(S(=O)(=O)CC2(C(=O)NO)CCN(S(=O)(=O)CC3CCCCC3)CC2)cc1" , system 72 kDa type IV collagenase (Homo sapiens, UniProt P08253)?
Output: 1.04

Task: Please tell me: log10(IC50) of "CC#CCOc1ccc(S(=O)(=O)CC2(C(=O)NO)CCN(S(=O)(=O)c3c(C)nn(C)c3C)CC2)cc1" , system 72 kDa type IV collagenase (Homo sapiens, UniProt P08253)?
Output: 2.00

###

test target: Disintegrin and metalloproteinase domain-containing protein 17 (Homo sapiens)
method notes: Inhibition of TACE
Readings of pIC50 for the listed compounds
Worth noting: pIC50 values are minus log10 of concentrations stated in mol/L.

Worked examples, 2 compounds total:
test_smiles=CC#CCOc1ccc(S(=O)(=O)CC2(C(=O)NO)CCN(C(=O)c3c(Cl)cncc3Cl)CC2)cc1 property=pIC50 quantitative_result=8.77
test_smiles=CC#CCOc1ccc(S(=O)(=O)CC2(C(=O)NO)CCN(c3ccncc3)CC2)cc1 property=pIC50 quantitative_result=8.25

Below: the item to evaluate.
Task: Reported pIC50, compound "CC#CCOc1ccc(S(=O)(=O)CC2(C(=O)NO)CCN(S(=O)(=O)c3cn(C)c(C)n3)CC2)cc1" : ____
Output: 8.52

###

Measurement record for 72 kDa type IV collagenase (Homo sapiens); quantity recorded: pIC50.
Worth noting: pIC50 values are minus log10 of concentrations stated in mol/L.

Worked examples, 4 compounds total:
test_smiles=CC#CCOc1ccc(S(=O)(=O)CC2(C(=O)NO)CCN(S(=O)(=O)N3CCOCC3)CC2)cc1 quantitative_result=7.29
test_smiles=CC#CCOc1ccc(S(=O)(=O)CC2(C(=O)NO)CCN(S(=O)(=O)C3CC3)CC2)cc1 quantitative_result=6.79
test_smiles=CC#CCOc1ccc(S(=O)(=O)CC2(C(=O)NO)CCN(S(=O)(=O)c3cc(Cl)sc3Cl)CC2)cc1 quantitative_result=7.66
test_smiles=CC#CCOc1ccc(S(=O)(=O)CC2(C(=O)NO)CCN(S(=O)(=O)C(CC)CC)CC2)cc1 quantitative_result=7.24

Below: the item to evaluate.
Task: Reported pIC50, compound "CC#CCOc1ccc(S(=O)(=O)CC2(C(=O)NO)CCN(S(=O)(=O)C3CCCCC3)CC2)cc1" : ____
Output: 8.40

###

test target: Disintegrin and metalloproteinase domain-containing protein 17 (Homo sapiens, UniProt P78536)
Sequence (P78536 whole entry, the tested form may be a part): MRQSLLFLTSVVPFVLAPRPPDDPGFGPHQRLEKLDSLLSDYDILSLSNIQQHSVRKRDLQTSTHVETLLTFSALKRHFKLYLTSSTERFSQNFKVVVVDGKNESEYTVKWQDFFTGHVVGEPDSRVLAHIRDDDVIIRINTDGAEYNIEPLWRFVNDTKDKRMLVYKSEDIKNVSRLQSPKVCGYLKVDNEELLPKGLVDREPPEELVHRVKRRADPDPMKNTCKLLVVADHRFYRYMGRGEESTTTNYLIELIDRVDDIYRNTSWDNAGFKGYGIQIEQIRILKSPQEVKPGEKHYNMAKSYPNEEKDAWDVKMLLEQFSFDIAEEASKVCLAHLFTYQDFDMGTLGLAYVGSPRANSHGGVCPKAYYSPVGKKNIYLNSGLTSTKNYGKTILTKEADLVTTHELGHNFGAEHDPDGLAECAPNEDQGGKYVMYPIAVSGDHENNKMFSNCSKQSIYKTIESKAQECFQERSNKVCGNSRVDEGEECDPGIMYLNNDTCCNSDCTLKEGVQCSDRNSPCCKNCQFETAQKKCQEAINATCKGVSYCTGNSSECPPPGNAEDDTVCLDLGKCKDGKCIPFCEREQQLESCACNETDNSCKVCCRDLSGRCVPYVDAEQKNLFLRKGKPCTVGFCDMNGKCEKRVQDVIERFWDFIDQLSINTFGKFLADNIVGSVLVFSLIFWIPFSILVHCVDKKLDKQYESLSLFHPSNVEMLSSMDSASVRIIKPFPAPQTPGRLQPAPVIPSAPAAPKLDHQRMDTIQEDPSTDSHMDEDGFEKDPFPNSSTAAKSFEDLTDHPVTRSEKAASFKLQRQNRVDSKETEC
method notes: Inhibition of TACE
property: pIC50
Worth noting: pIC50 values are minus log10 of concentrations stated in mol/L.

Task: Reported pIC50, molecule "CC#CCOc1ccc(S(=O)(=O)CC2(C(=O)NO)CCN(S(=O)(=O)C3CCCCC3)CC2)cc1" : ____
Output: 8.55

Task: Reported pIC50, molecule CC#CCOc1ccc(S(=O)(=O)CC2(C(=O)NO)CCN(S(=O)(=O)C(C)CN3CCOCC3)CC2)cc1 (centres undefined) : ____
Output: 8.85

Task: Reported pIC50, molecule "CC#CCOc1ccc(S(=O)(=O)CC2(C(=O)NO)CCN(c3ccccn3)CC2)cc1" : ____
Output: 8.88

Task: Reported pIC50, molecule "CC#CCOc1ccc(S(=O)(=O)CC2(C(=O)NO)CCN(S(=O)(=O)N3CCOCC3)CC2)cc1" : ____
Output: 9.00

Task: Reported pIC50, molecule Cc1cc(COc2ccc(S(=O)(=O)CC(CC3CCN(C(C)(C)C)CC3)N(O)C=O)cc2)c2ccccc2n1 (centres undefined) : ____
Output: 7.92

Task: Reported pIC50, molecule "CC#CCOc1ccc(S(=O)(=O)CC2(C(=O)NO)CCN(S(=O)(=O)CCN3CCOCC3)CC2)cc1" : ____
Output: 8.66

###

Measurement record for Collagenase 3 (Homo sapiens, UniProt P45452); quantity recorded: IC50.
Kindly answer with a numeric value in µM, unit omitted.

compound=CC#CCOc1ccc(S(=O)(=O)CC2(C(=O)NO)CCN(S(=O)(=O)C3CCCC3)CC2)cc1 test_target="Collagenase 3 (Homo sapiens, UniProt P45452)" quantitative_result=0.155
compound=CC#CCOc1ccc(S(=O)(=O)CC2(C(=O)NO)CCN(C(=O)c3c(Cl)cncc3Cl)CC2)cc1 test_target="Collagenase 3 (Homo sapiens, UniProt P45452)" quantitative_result=0.449
compound="Cc1cc(COc2ccc(S(=O)(=O)CC(CC3CCN(C(C)(C)C)CC3)N(O)C=O)cc2)c2ccccc2n1 (stereo not drawn)" test_target="Collagenase 3 (Homo sapiens, UniProt P45452)" quantitative_result=4

Task: Please tell me: IC50 of "CC#CCOc1ccc(S(=O)(=O)CC2(C(=O)NO)CCN(S(=O)(=O)C3CCCCC3)CC2)cc1" , system Collagenase 3 (Homo sapiens, UniProt P45452)?
Output: 0.0244

Task: Please tell me: IC50 of "CC#CCOc1ccc(S(=O)(=O)CC2(C(=O)NO)CCN(S(=O)(=O)N3CCOCC3)CC2)cc1" , system Collagenase 3 (Homo sapiens, UniProt P45452)?
Output: 0.195

Task: Please tell me: IC50 of "CC#CCOc1ccc(S(=O)(=O)CC2(C(=O)NO)CCN(Cc3c(Cl)cncc3Cl)CC2)cc1" , system Collagenase 3 (Homo sapiens, UniProt P45452)?
Output: 0.259

Task: Please tell me: IC50 of "CC#CCOc1ccc(S(=O)(=O)CC2(C(=O)NO)CCN(S(=O)(=O)C(C)(C)C)CC2)cc1" , system Collagenase 3 (Homo sapiens, UniProt P45452)?
Output: 0.238

Task: Please tell me: IC50 of "CC#CCOc1ccc(S(=O)(=O)CC2(C(=O)NO)CCN(S(=O)(=O)Cc3ccncc3)CC2)cc1" , system Collagenase 3 (Homo sapiens, UniProt P45452)?
Output: 0.295
